- SYSTEM: HLA-A*03:01
- EXPERIMENTAL_PROTOCOL: IEDB peptide-MHC binding, purified MHC/direct/fluorescence; filed as Kd, often an IC50 or EC50 that approximates it; bounds were set here for any values at or beyond the usual limits of such assays
- CONDITION_PARAMETERS: source organism: Amur virus
OUTCOME_MEASURE: Kd (nM)

VIGFLALAK = 232

====

- SYSTEM: HLA-B*18:01
- EXPERIMENTAL_PROTOCOL: IEDB peptide-MHC binding, purified MHC/direct/fluorescence; filed as Kd, often an IC50 or EC50 that approximates it; bounds were set here for any values at or beyond the usual limits of such assays
- CONDITION_PARAMETERS: source organism: Campylobacter jejuni
pKd: −log10 of the molar value.
OUTCOME_MEASURE: pKd

YWDQVTFFY = ≤ 4.70
